test system: whole blood from subjects with T1D and Celiac disease; test: Whole blood cytokine release assay, IP-10 (MAGPIX), Example 1; format: cell-based, human; settings: Subject 7; individual 17mer 20 μg/mL; blood 6 days after commencing oral gluten challenge
IP-10 fold-change values for the sequences below.

Look over these answered cases.
| CHAIN_SEQUENCE | TESTED_TARGET | ATTRIBUTE_MEASURED | READOUT_VALUE |
| --- | --- | --- | --- |
| FYTPKTRREAEDLQGSL [SEQ ID NO: 46] | whole blood from subjects with T1D and Celiac disease | IP-10 fold-change | 2.70 |
| EDLQVGEVELGGGPGAG [SEQ ID NO: 50] | whole blood from subjects with T1D and Celiac disease | IP-10 fold-change | 1.61 |
| MRLLPLLALLALWGPDP [SEQ ID NO: 47] | whole blood from subjects with T1D and Celiac disease | IP-10 fold-change | 2.18 |
| RGFFYTPKTRREAEVGE [SEQ ID NO: 57] | whole blood from subjects with T1D and Celiac disease | IP-10 fold-change | 0.75 |

Entry under review: EAEVGQVELGGGPGAGS [SEQ ID NO: 56] . Reported IP-10 fold-change? 1.43

Now the sequence MALWMRLLPLLALLALW [SEQ ID NO: 54] 0.73

Moving on to CGSHLVEALYLVCGERG [SEQ ID NO: 53] 0.83

Try the sequence YTPKTRREAEDLQVGQV [SEQ ID NO: 55] 1.42

Try this sequence too: PLLALLALWGPDPAAAF [SEQ ID NO: 45] 2.73

Same read-out for REAEDLQVGQVELGGGP [SEQ ID NO: 48] ? 2.48

Would you mind doing NQHLCGSHLVEALYLVC [SEQ ID NO: 51] as well? 1.57

RREAEDLEGSLQPLALE [SEQ ID NO: 49] , same question. 0.99

What about PKTRREAEVGQVELGGG [SEQ ID NO: 52] ? 0.97

Same question for PLALEGSLQKRGIVEQC [SEQ ID NO: 58] please. 1.09

* * *

test system: whole blood from subjects with T1D and Celiac disease; assay: Whole blood cytokine release assay, IL-2 (MAGPIX), Example 1; type: cell-based, human; settings: Subject 7; individual 17mer 20 μg/mL; blood 6 days after commencing oral gluten challenge
# maps each entry to its IL-2 fold-change (preproinsulin peptides)
Hi! Could you send only the number? It should be in fold, unit omitted.

| CHAIN_SEQUENCE | UNITS_OF_MEASURE | READOUT_VALUE |
| --- | --- | --- |
| REAEDLQVGQVELGGGP [SEQ ID NO: 48] | fold | 0.50 |
| NQHLCGSHLVEALYLVC [SEQ ID NO: 51] | fold | 0.21 |
| MRLLPLLALLALWGPDP [SEQ ID NO: 47] | fold | 0.36 |
| FYTPKTRREAEDLQGSL [SEQ ID NO: 46] | fold | 8.19 |
| MALWMRLLPLLALLALW [SEQ ID NO: 54] | fold | 0.21 |

// IL-2 fold-change (preproinsulin peptides) lookup, key: EAEVGQVELGGGPGAGS [SEQ ID NO: 56] 4.83

What about this sequence? EDLQVGEVELGGGPGAG [SEQ ID NO: 50] 7.35

* * *

Measured IP-10 fold-change (preproinsulin peptides) accompanies every entry in the list below.
test system: whole blood from subjects with T1D and Celiac disease; experiment: Whole blood cytokine release assay, IP-10 (MAGPIX), Example 1; assay type: cell-based, human; conditions: Subject 2; individual 17mer 20 μg/mL; blood 6 days after commencing oral gluten challenge
Provide the reading as a plain figure in fold.

# example entries with known answers
| CHAIN_SEQUENCE | UNITS_OF_MEASURE | READOUT_VALUE |
| --- | --- | --- |
| EAEVGQVELGGGPGAGS [SEQ ID NO: 56] | fold | 1.05 |
| MALWMRLLPLLALLALW [SEQ ID NO: 54] | fold | 1.05 |
| RREAEDLEGSLQPLALE [SEQ ID NO: 49] | fold | 2.58 |
| NQHLCGSHLVEALYLVC [SEQ ID NO: 51] | fold | 1.45 |
| YTPKTRREAEDLQVGQV [SEQ ID NO: 55] | fold | 1.22 |
| REAEDLQVGQVELGGGP [SEQ ID NO: 48] | fold | 1.67 |
| RGFFYTPKTRREAEVGE [SEQ ID NO: 57] | fold | 0.91 |
| EDLQVGEVELGGGPGAG [SEQ ID NO: 50] | fold | 0.96 |

What does the record list as IP-10 fold-change (preproinsulin peptides) for PLALEGSLQKRGIVEQC [SEQ ID NO: 58] ? 1.02

Another sequence to look at: FYTPKTRREAEDLQGSL [SEQ ID NO: 46] 4.64

Param item: PKTRREAEVGQVELGGG [SEQ ID NO: 52] 1.56

Now this one: PLLALLALWGPDPAAAF [SEQ ID NO: 45] 6.60

Please answer likewise for CGSHLVEALYLVCGERG [SEQ ID NO: 53] 1.50

Same thing, different sequence: MRLLPLLALLALWGPDP [SEQ ID NO: 47] 1.37

* * *

test system: whole blood from subjects with T1D and Celiac disease; test: Whole blood cytokine release assay, IL-2 (MAGPIX), Example 1; format: cell-based, human; conditions: Subject 6; individual 17mer 20 μg/mL; blood 6 days after commencing oral gluten challenge
Measured IL-2 fold-change, listed per entry for reference.
No unit in the answer, only the number.

| CHAIN_SEQUENCE | TESTED_TARGET | IL-2 fold-change |
| --- | --- | --- |
| NQHLCGSHLVEALYLVC [SEQ ID NO: 51] | whole blood from subjects with T1D and Celiac disease | 1.00 |
| EDLQVGEVELGGGPGAG [SEQ ID NO: 50] | whole blood from subjects with T1D and Celiac disease | 1.00 |
| PLALEGSLQKRGIVEQC [SEQ ID NO: 58] | whole blood from subjects with T1D and Celiac disease | 1.00 |
| PLLALLALWGPDPAAAF [SEQ ID NO: 45] | whole blood from subjects with T1D and Celiac disease | 1.64 |
| EAEVGQVELGGGPGAGS [SEQ ID NO: 56] | whole blood from subjects with T1D and Celiac disease | 1.00 |
| RGFFYTPKTRREAEVGE [SEQ ID NO: 57] | whole blood from subjects with T1D and Celiac disease | 1.00 |

IL-2 fold-change for PKTRREAEVGQVELGGG [SEQ ID NO: 52] ? 1.00

YTPKTRREAEDLQVGQV [SEQ ID NO: 55] ? 1.04

And the next one, MRLLPLLALLALWGPDP [SEQ ID NO: 47] ? 1.00

Then what about the sequence MALWMRLLPLLALLALW [SEQ ID NO: 54] ? 1.00

Query REAEDLQVGQVELGGGP [SEQ ID NO: 48] next 1.12

* * *

system: whole blood from subjects with T1D and Celiac disease; assay: Whole blood cytokine release assay, IFN-γ (MAGPIX), Example 1; assay type: cell-based, human; details: Subject 2; individual 17mer 20 μg/mL; blood 6 days after commencing oral gluten challenge
Overview of recorded IFN-g fold-change (preproinsulin peptides) for various sequences
Note: unit fold is implicit; provide only the numeric part.

These solved cases illustrate the format of a correct answer.
| CHAIN_SEQUENCE | TESTED_TARGET | UNITS_OF_MEASURE | READOUT_VALUE |
| --- | --- | --- | --- |
| MRLLPLLALLALWGPDP [SEQ ID NO: 47] | whole blood from subjects with T1D and Celiac disease | fold | 0.85 |
| EDLQVGEVELGGGPGAG [SEQ ID NO: 50] | whole blood from subjects with T1D and Celiac disease | fold | 1.01 |
| RREAEDLEGSLQPLALE [SEQ ID NO: 49] | whole blood from subjects with T1D and Celiac disease | fold | 1.27 |
| YTPKTRREAEDLQVGQV [SEQ ID NO: 55] | whole blood from subjects with T1D and Celiac disease | fold | 0.82 |
| NQHLCGSHLVEALYLVC [SEQ ID NO: 51] | whole blood from subjects with T1D and Celiac disease | fold | 0.82 |

Need IFN-g fold-change (preproinsulin peptides) of RGFFYTPKTRREAEVGE [SEQ ID NO: 57] , thanks. 0.82

Same question, PKTRREAEVGQVELGGG [SEQ ID NO: 52] this time 1.08

Now this one: CGSHLVEALYLVCGERG [SEQ ID NO: 53] 1.01

Now this one: PLLALLALWGPDPAAAF [SEQ ID NO: 45] 1.53

Entry EAEVGQVELGGGPGAGS [SEQ ID NO: 56] please 0.82
